Data origin, for the record: paper PMC8344022

Tested on: MCF-7 cells
runDescription: Antiproliferation assay (MTT)
Assay type: cell-based
testParameters: Homo sapiens, MCF7, 168 h, 7-day incubation, read-out: Cytotoxicity EC50
experimentalEndpoint: pEC50
Answers are plain numbers, as −log10 of the molar value.

So what does the record say about pEC50 for CC(C)(C)c1ccc(-n2cc(C(=O)NC3CCNCC3)nc2-c2ccccc2)cc1 [Compound 1] ?
4.70

* * *

System: AF9/ENL-DOT1L/AF4/AFF4 interactions
runDescription: Biochemical assays of PPIs between AF9/ENL and DOT1L/AF4/AFF4 (overall)
Type: binding, human
testParameters: range over the PPIs tested; read-out: IC50s against AF9/ENL-DOT1L/AF4/AFF4 interactions (range over PPIs)
experimentalEndpoint: IC50

GET /values?readout=IC50&item= CC(C)(C)c1ccc(-n2cc(C(=O)NC3CCNCC3)nc2-c2ccccc2)cc1
940 to 3500 nM
